# merged literature set: Ki with Somatostatin receptor type 1 (Homo sapiens, UniProt P30872)
# Sequence (P30872 whole entry): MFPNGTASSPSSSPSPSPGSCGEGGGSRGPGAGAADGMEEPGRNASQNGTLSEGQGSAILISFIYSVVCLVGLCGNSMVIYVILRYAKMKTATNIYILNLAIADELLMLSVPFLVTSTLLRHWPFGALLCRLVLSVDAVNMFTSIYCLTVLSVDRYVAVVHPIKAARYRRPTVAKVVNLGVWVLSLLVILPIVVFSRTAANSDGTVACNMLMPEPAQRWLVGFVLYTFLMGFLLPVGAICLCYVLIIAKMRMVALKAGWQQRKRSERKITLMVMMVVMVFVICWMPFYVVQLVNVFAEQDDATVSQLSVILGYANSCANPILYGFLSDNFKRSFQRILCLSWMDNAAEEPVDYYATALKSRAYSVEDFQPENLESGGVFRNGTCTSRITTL
Give the value in nM but do not write nM after it.

compound: C[C@@H](O)[C@@H]1NC(=O)[C@H](CCCCN)NC(=O)[C@@H](Cc2c[nH]c3ccccc23)NC(=O)[C@H](Cc2ccccc2)NC(=O)[C@H](Cc2ccccc2)NC(=O)[C@H](N)CSSC[C@H](C(N)=O)NC(=O)[C@H](Cc2ccccc2)NC1=O
reading unit: nM
Ki: 582

compound: CC[C@@H]1NC(=O)[C@H](CCCCN)NC(=O)[C@@H](Cc2c[nH]c3ccccc23)NC(=O)[C@H](Cc2ccc(O)cc2)NC(=O)[C@@H](NC(=O)[C@H](N)Cc2ccccc2)CSSC[C@@H](C(=O)N[C@H](C(N)=O)[C@@H](C)O)NC1=O
reading unit: nM
Ki: 1000

Please look at the following compound next.
# input Form field: reported Ki of CC(CCN)CC(C)(C)CNC(=O)[C@@H](Cc1cccc2ccccc12)NC(=O)N(CCc1ccccc1)CCc1ccccn1 (stereo partly drawn)
# output 1.4
